Experiment: Tmax in healthy human at 200 mg/kg, po once daily for 7 days
Type: ADME, organism-based
Set-up: dose 200 mg/kg, route oral
Conditions: in vivo
parameter: Tmax (h)
Give bare numbers, in h.

The recorded Tmax for entry `COC[C@@H](c1ccc(C(F)(F)F)cc1)N1CCN(C2(C)CCN(C(=O)c3c(C)ncnc3C)CC2)C[C@@H]1C` equals 2

====

Test: AUC (0 to 24 hrs) in healthy human at 150 […], po once daily for 7 days measured after 1 day of last dose
Assay type: ADME, organism-based
Parameters: time < 24 hr, dose 150 mg/kg, route oral
Conditions: plasma
parameter: AUC at 24 h (ng·h/mL)
One number for each entry, in ng·h/mL.

Record `COC[C@@H](c1ccc(C(F)(F)F)cc1)N1CCN(C2(C)CCN(C(=O)c3c(C)ncnc3C)CC2)C[C@@H]1C` . Reported AUC at 24 h: 3260

====

Experiment: Tmax in healthy human at 150 […], po once daily for 7 days measured after 1 day of last dose
Type: ADME, organism-based
Parameters: dose 150 mg/kg, route oral
Details: in vivo
parameter: Tmax (h)
One number for each entry, in h.

Lab note: measured Tmax of `COC[C@@H](c1ccc(C(F)(F)F)cc1)N1CCN(C2(C)CCN(C(=O)c3c(C)ncnc3C)CC2)C[C@@H]1C` was 1.75

====

Test: AUC (0 to 24 hrs) in healthy human at 250 mg/kg, po once daily for 7 days
Type: ADME, organism-based
Parameters: time < 24 hr, dose 250 mg/kg, route oral
Conditions: plasma
parameter: AUC at 24 h (ng·h/mL)
Answers are plain numbers, in ng·h/mL.

Form: compound = `COC[C@@H](c1ccc(C(F)(F)F)cc1)N1CCN(C2(C)CCN(C(=O)c3c(C)ncnc3C)CC2)C[C@@H]1C` ; AUC at 24 h = 8750

====

Assay: Cmax in healthy human at 250 mg/kg, po administered as single dose after 1 day
Assay type: ADME, organism-based
Parameters: dose 250 mg/kg, route oral
Details: in vivo
parameter: Cmax (ng/mL)
Answers are plain numbers, in ng/mL.

Recorded result, COC[C@@H](c1ccc(C(F)(F)F)cc1)N1CCN(C2(C)CCN(C(=O)c3c(C)ncnc3C)CC2)C[C@@H]1C [VICRIVIROC] , Cmax: 984

====

Assay: Tmax in healthy human at 150 […], po after 10 days
Format: ADME, organism-based
Set-up: dose 150 mg/kg, route oral
Details: in vivo
parameter: Tmax (h)
One number for each entry, in h.

Notebook: `COC[C@@H](c1ccc(C(F)(F)F)cc1)N1CCN(C2(C)CCN(C(=O)c3c(C)ncnc3C)CC2)C[C@@H]1C` , Tmax read as 1.5

====

Test: AUC (0 to 24 hrs) in healthy human at 150 […], po once daily for 7 days
Type: ADME, organism-based
Parameters: time < 24 hr, dose 150 mg/kg, route oral
Conditions: plasma
parameter: AUC at 24 h
Number first, unit second: that is the form wanted.

// COC[C@@H](c1ccc(C(F)(F)F)cc1)N1CCN(C2(C)CCN(C(=O)c3c(C)ncnc3C)CC2)C[C@@H]1C [VICRIVIROC] : AUC at 24 h value = 6060 ng·h/mL

====

Assay: AUC (0 to infinity) in healthy human at 300 mg/kg, po administered as single dose after 1 day
Type: ADME, organism-based
Parameters: time infinity, dose 300 mg/kg, route oral
Settings: plasma
parameter: AUC(0-inf) (ng·h/mL)
Answers are plain numbers, in ng·h/mL.

In plain terms, COC[C@@H](c1ccc(C(F)(F)F)cc1)N1CCN(C2(C)CCN(C(=O)c3c(C)ncnc3C)CC2)C[C@@H]1C [VICRIVIROC] has a documented AUC(0-inf) of 10100
